Recorded pIC50 values (CKI ε wild type (Homo sapiens)) are given below.
pIC50: −log10 of the molar value.
ENDPOINT: pIC50

| COMPOUND | pIC50 |
| --- | --- |
| CC(C)CN1Cc2nccc(-c3cn(C)nc3-c3ccc(F)cc3)c2C1=O [Example 39] | 6.62 |

(P) Cn1cc(-c2ccnc3c2C(=O)N([C@H]2CCOC2=O)C3)c(-c2ccc(F)cc2)n1 [Example 46]
(Q) Cn1cc(-c2ccnc3c2C(=O)N(C2CCCC2)C3)c(-c2ccc(F)cc2)n1 [Example 32]
(R) Cn1cc(-c2ccnc3c2C(=O)N(CCOC(C)(C)C)C3)c(-c2ccc(F)cc2)n1 [Example 30]
Asked: In this exercise, place the 3 compounds in ascending sequence of their recorded pIC50. Lab note: record answer as labels in requested order.
Given back: P, R, Q
(P: 6.42, R: 6.83, Q: 7.39)

(I) Cn1cc(-c2ccnc3c2CN(Cc2ccccc2)C3)c(-c2ccc(F)cc2)n1 [Example 6]
(II) Cn1cc(-c2ccnc3c2C(=O)N(Cc2ccccc2)C3)c(-c2ccc(F)cc2)n1 [Example 5]
Asked: Please indicate which has the smaller reported pIC50: I , or II . Answer by quoting the chosen item's label.
Given back: I

(I) Cc1noc(CCN2Cc3nccc(-c4cn(C)nc4-c4ccc(F)cc4)c3C2=O)n1 [Example 38]
(II) Cn1cc(-c2ccnc3c2C(=O)N(Cc2cccnc2)C3)c(-c2ccc(F)cc2)n1 [Example 50]
Asked: Please indicate which has the smaller reported pIC50: I , or II . Answer by quoting the chosen item's label.
Given back: II
